Assay: Cmax in JAXC57BL/6J mouse at 10 mg/kg, po administered through plastic gavage as single dose measured up to 240 mins by HPLC-MS analysis
Type: ADME, organism-based
Parameters: dose 10 mg/kg, route oral
Settings: C57BL/6J, in vivo
Readout Label: Cmax (ng/mL)
Numbers only; they are read as ng/mL.

// Cmax value for Cl.O=C(O)CCc1ccc(OCc2ccc(CN3CCC4(CC3)CC(Cc3ccc(F)cc3)CCO4)cc2)cc1 (stereo unspecified) : 226

----------
Target: Free fatty acid receptor 1 (Homo sapiens, UniProt O14842)
Sequence (O14842 whole entry): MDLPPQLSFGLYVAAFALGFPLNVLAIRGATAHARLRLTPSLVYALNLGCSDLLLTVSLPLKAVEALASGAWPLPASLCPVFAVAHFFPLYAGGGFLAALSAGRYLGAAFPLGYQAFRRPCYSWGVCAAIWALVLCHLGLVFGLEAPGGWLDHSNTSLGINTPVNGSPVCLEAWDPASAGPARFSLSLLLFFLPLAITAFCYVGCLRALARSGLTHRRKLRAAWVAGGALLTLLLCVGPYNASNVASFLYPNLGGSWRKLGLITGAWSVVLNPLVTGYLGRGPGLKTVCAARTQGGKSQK
Experiment: Agonist activity at human FFA1 receptor expressed in CHO cells assessed as induction of Ca2+ flux by fluo-8 dye based FLIPR assay
Type: functional, cell-based
pEC50: −log10 of the molar value.
// label = label 1 if pEC50 is not less than 6, otherwise label 0

Below, 5 molecules whose answers are already recorded.
> print(dat)
                                   molecule  label.class
1  Cl.O=C(O)CCc1ccc(OCc2ccc(CN3CCC4(CC3)CC(Cc3ccc(F)cc3)CCO4)cc2)cc1 (stereo not given)      label 1
2  O=C(O)CCc1ccc(OCc2ccc(CN3CCC4(CC3)CC(OCC3CC3)CCO4)cc2)cc1 (stereo not given)      label 0
3  O=C(O)CCc1ccc(OCc2ccc(CN3CCC4(CCCCO4)CC3)cc2)cc1      label 0
4  COc1ccc(CC2CCOC3(CCN(Cc4ccc(COc5ccc(CCC(=O)O)cc5)cc4)CC3)C2)cc1.Cl (stereo not given)      label 1
5  O=C(O)CCc1ccc(OCc2ccc(CN3CCC4(CC3)CC(OCc3ccc(C(F)(F)F)cc3)CCO4)cc2)cc1 (stereo not given)      label 0

Textbook exercise: given the entry COC1CCOC2(CCN(Cc3ccc(COc4ccc(CCC(=O)O)cc4)cc3)CC2)C1 (stereo not given) , state whether its pEC50 is greater than or equal to 6. label 0

Textbook exercise: given the entry O=C(O)CCc1ccc(OCc2ccc(CN3CCC4(CC3)CC(Cc3nc(C5CC5)no3)CCO4)cc2)cc1 (stereo not given) , state whether its pEC50 is greater than or equal to 6. label 0

Textbook exercise: given the entry O=C(O)CCc1ccc(OCc2ccc(CN3CCC4(CC3)CC(Cc3nc(-c5cccnc5)no3)CCO4)cc2)cc1 (stereo not given) , state whether its pEC50 is greater than or equal to 6. label 0
